Sourced from PubChem BioAssay (NCATS)

tested on: SKOV3; assay: Primary qHTS to identify gynecologic anti-cancer compounds using libraries of approved drugs and bioactive compounds (AID 1345084); conditions: Gynecologic cancer cell panel viability, ATPlite luminescence, 48 h; series mostly up to 57.5 µM; note: nearly all actives have a fitted effect of over 55% in size
Inconclusive results are not listed. The source made the active and inactive calls. Calls come from the whole dose curve; as a rule, active = well fitted cell-killing curve with a large enough effect; inconclusive = small, poorly fitted or top-dose-only effect, or effect the other way; inactive = flat fitted curve, though single readings scatter.
Use one of these outcomes when replying: class 1 (active), class 0 (inactive)

// known answers, use as guide
### Prompt Dear all, I need the recorded test outcome for CN1CCN(C2=Nc3ccccc3Nc3ccc(OS(=O)(=O)C(F)(F)F)cc32)CC1 , thank you.
### Response class 0

### Prompt Dear all, I need the recorded test outcome for COc1c(CCC(=O)O)cccc1O[C@@H]1O[C@H](CO)[C@@H](O)[C@H](O)[C@H]1O , thank you.
### Response class 0

### Prompt Dear all, I need the recorded test outcome for CNc1nc(Nc2ccc(C(=O)N3CCOCC3)cc2OC)nc2[nH]cc(Cl)c12 , thank you.
### Response class 0

### Prompt Dear all, I need the recorded test outcome for CCCc1cc2c(N3CCN(C4=NCC(C)(C)S4)CC3)ncnc2s1 , thank you.
### Response class 1

### Prompt Dear all, I need the recorded test outcome for O=C(O)c1ccc(S(=O)(=O)N(Cc2ccc(OC(F)(F)F)cc2)c2ncc(C(F)(F)F)cc2Cl)cc1 , thank you.
### Response class 0

***
### Prompt Dear all, I need the recorded test outcome for CC[C@H]1CN(c2nc(N)c(C(N)=O)nc2Cl)CCN1C1CCN(Cc2ccc(Cl)cc2)CC1 , thank you.
### Response class 0

### Prompt Dear all, I need the recorded test outcome for COc1ccc(CCN(C)CCCOc2nsc(-c3ccccc3)n2)cc1OC , thank you.
### Response class 0

### Prompt Dear all, I need the recorded test outcome for CCC(C)/C=C(C)/C=C/C1=CC2=C(Cl)C(=O)C(C)(OC(C)=O)C(=O)C2(O)C(OC)O1 (centres undefined) , thank you.
### Response class 0

### Prompt Dear all, I need the recorded test outcome for C=CCCN1CCC2(CC1)CN(C(=O)c1c(F)cccc1F)c1ccc(Cl)cc12 , thank you.
### Response class 0

### Prompt Dear all, I need the recorded test outcome for Fc1ccc(N2CCN(CCC3OCCc4ccccc43)CC2)cc1 (centres undefined) , thank you.
### Response class 0

### Prompt Dear all, I need the recorded test outcome for C[C@H](CN(C)C)Oc1nc(Nc2cc3cccc(Cl)c3cn2)cnc1C#N , thank you.
### Response class 1

### Prompt Dear all, I need the recorded test outcome for CC(=O)c1c(C)cc2cccc(O)c2c1O[C@@H]1O[C@H](CO)[C@@H](O)[C@H](O)[C@H]1O , thank you.
### Response class 0

### Prompt Dear all, I need the recorded test outcome for C=C[C@H](/C=C\c1ccc(O)cc1)c1ccc(O)cc1 , thank you.
### Response class 0

### Prompt Dear all, I need the recorded test outcome for O=C(NCC(=O)N1CCCC1)Nc1ccc2cnccc2c1 , thank you.
### Response class 0

### Prompt Dear all, I need the recorded test outcome for Cc1cc2c(c(=O)o1)C=C1CC[C@H]([C@H](C)Cn3cnc(=N)c4[nH]cnc43)C[C@@H]1O2 , thank you.
### Response class 0

### Prompt Dear all, I need the recorded test outcome for C=C1C(=O)O[C@@H]2C3=C(C)CCC[C@]3(C)CC[C@@]12O , thank you.
### Response class 0

### Prompt Dear all, I need the recorded test outcome for Nc1nc(OCc2cc(Br)cs2)c2[nH]cnc2n1 , thank you.
### Response class 0

### Prompt Dear all, I need the recorded test outcome for CC1=CC2/C=C(\C)CCC3OC(C)(C)OC3CCC(=O)C23C(=O)NC(CC(C)C)C3C1C (centres undefined) , thank you.
### Response class 0

### Prompt Dear all, I need the recorded test outcome for C=C[C@](C)(O)CC[C@H]1C(C)=CC(=O)[C@H]2C(C)(C)CCC[C@]12C , thank you.
### Response class 0

### Prompt Dear all, I need the recorded test outcome for CC(C)[C@@H](c1ccc(C(F)(F)F)cc1CN(Cc1cc(C(F)(F)F)cc(C(F)(F)F)c1)c1nnn(C)n1)N1CCC(C(=O)O)CC1 , thank you.
### Response class 0

### Prompt Dear all, I need the recorded test outcome for Cc1nc(-c2cn3c(n2)-c2ccc(-c4cnn(C(C)(C)C(N)=O)c4)cc2OCC3)n(C(C)C)n1 , thank you.
### Response class 1

### Prompt Dear all, I need the recorded test outcome for Cc1cc(F)ccc1-c1nc(NCCN=C(N)NC#N)nc2c1ccc(=O)n2-c1c(F)cccc1F , thank you.
### Response class 0

### Prompt Dear all, I need the recorded test outcome for COc1cc(CN(CCN)C(=O)c2cccs2)ccc1OCc1ccccc1 , thank you.
### Response class 0

### Prompt Dear all, I need the recorded test outcome for CCC/C=C/C=C/C1CC(O)C2(O)C(=O)OCC12 (centres undefined) , thank you.
### Response class 0

### Prompt Dear all, I need the recorded test outcome for CCC(C)C(=O)O[C@H]1[C@@H](OC(=O)c2ccoc2)C[C@](C)(O)[C@]23OC(C)(C)[C@H](C[C@H](OC(=O)c4ccoc4)[C@]12COC(C)=O)[C@H]3OC(C)=O (some centres undefined) , thank you.
### Response class 0
